Test system: Salmonella enterica serovar Typhimurium SL1344
assay-details: normalized growth (OD600, IQM-normalized) in LPM (fraction of plate interquartile mean); higher = more bacterial growth (less inhibition)
condition-context: LPM pH 5.8; 10 µM; 16 h
The full ranking holds about 1,600 compounds; the median of “normalized growth (OD600, IQM-normalized) in LPM” is about 1, and the lowest 2% start at about 0.014. This excerpt belongs to a sample that is enriched for the lowest values.
experimental-readout: normalized growth

{"columns": ["compound", "experimental-readout", "recorded-number"],
 "data": [
  ["COc1cccc2c1C(=O)c1c(O)c3c(c(O)c1C2=O)C[C@@](O)(C(C)=O)C[C@@H]3O[C@H]1C[C@H](N)[C@H](O)[C@H](C)O1", "normalized growth", 0.946],
  ["CC(=O)Oc1cc2c(s1)CCN(C(C(=O)C1CC1)c1ccccc1F)C2 (stereo not given)", "normalized growth", 1.08],
  ["N=C(N)NCC1COC2(CCCCC2)O1 (stereo not given)", "normalized growth", 0.863],
  ["CC(C)CCCC(C)N (stereo not given)", "normalized growth", 1.05],
  ["COc1c(C)c2c(c(O)c1C/C=C(\\C)CCC(=O)OCCN1CCOCC1)C(=O)OC2", "normalized growth", 1.01]
]}

* * *

Tested on: Salmonella enterica serovar Typhimurium SL1344
assay-details: normalized growth (OD600, IQM-normalized) in LPM (fraction of plate interquartile mean); higher = more bacterial growth (less inhibition)
condition-context: LPM pH 5.8; 10 µM; 16 h
Over roughly 1,600 compounds, “normalized growth (OD600, IQM-normalized) in LPM” has its median near 1; the lowest 2% begin near 0.014. The sample as a whole holds a higher share of the lowest values than the screen did.
# normalized growth values compiled below

{"columns": ["molecule", "normalized growth"],
 "data": [
  ["CN1CC(=O)N2[C@H](c3ccc4c(c3)OCO4)c3[nH]c4ccccc4c3C[C@@H]2C1=O", 1.19],
  ["C[C@]12CC[C@@H]3c4ccc(OC(=O)c5ccccc5)cc4CC[C@H]3[C@@H]1CC[C@@H]2O", 0.779],
  ["CCN(CC)CCOc1ccc2c(c1)C(=O)c1cc(OCCN(CC)CC)ccc1-2", 1.02],
  ["CCCCCCOc1ccccc1C(N)=O", 1.01],
  ["Cc1cc2nc3c(=O)[nH]c(=O)nc-3n(CC(O)C(O)C(O)COP(=O)(O)O)c2cc1C (stereo not given)", 0.822]
]}

* * *

# normalized growth values compiled below
Tested on: Salmonella enterica serovar Typhimurium SL1344
assay-details: normalized growth (OD600, IQM-normalized) in LPM (fraction of plate interquartile mean); higher = more bacterial growth (less inhibition)
condition-context: LPM pH 5.8; 10 µM; 16 h
Whole data set: some 1,600 compounds, median “normalized growth (OD600, IQM-normalized) in LPM” near 1, cut for the lowest 2% near 0.014. Shown is part of a subset that was picked to be rich in the lowest values.
experimental-readout: normalized growth

{"columns": ["compound", "study-target", "recorded-number"],
 "data": [
  ["C[C@]12CCC(=O)C=C1[C@@H]1C[C@@H]1[C@H]1[C@@H]3[C@@H]4C[C@@H]4[C@@]4(CCC(=O)O4)[C@@]3(C)CC[C@@H]12", "Salmonella enterica serovar Typhimurium SL1344", 1.07],
  ["CC(NCCC(c1ccccc1)c1ccccc1)c1ccccc1 (stereo not drawn)", "Salmonella enterica serovar Typhimurium SL1344", 0.976],
  ["CCOC(=O)CCC(=O)O[C@H]1[C@H](O[C@@H]2[C@@H](C)[C@H](O[C@H]3C[C@@](C)(OC)[C@@H](O)[C@H](C)O3)[C@@H](C)C(=O)O[C@H](CC)[C@@](C)(O)[C@H](O)[C@@H](C)C(=O)[C@H](C)C[C@@]2(C)O)O[C@H](C)C[C@@H]1N(C)C", "Salmonella enterica serovar Typhimurium SL1344", 1.14],
  ["Cc1c(OCC(F)(F)F)ccnc1C[S@@+]([O-])c1nc2ccccc2[nH]1", "Salmonella enterica serovar Typhimurium SL1344", 0.967],
  ["Nc1ccn([C@@H]2O[C@H](CO)[C@@H](O)[C@@H]2O)c(=O)n1", "Salmonella enterica serovar Typhimurium SL1344", 1.01],
  ["O=C(COc1ccc(Cl)cc1)N1CCN(Cc2ccc3c(c2)OCO3)CC1", "Salmonella enterica serovar Typhimurium SL1344", 0.928],
  ["O=c1[nH]cnc2c1ncn2[C@@H]1O[C@H](CO)[C@@H](O)[C@H]1O", "Salmonella enterica serovar Typhimurium SL1344", 1.13],
  ["CCN(CC)C(=O)/C(C#N)=C/c1cc(O)c(O)c([N+](=O)[O-])c1", "Salmonella enterica serovar Typhimurium SL1344", 0.924]
]}

* * *

Test system: Salmonella enterica serovar Typhimurium SL1344
assay-details: normalized growth (OD600, IQM-normalized) in LPM (fraction of plate interquartile mean); higher = more bacterial growth (less inhibition)
condition-context: LPM pH 5.8; 10 µM; 16 h
Whole data set: some 1,600 compounds, median “normalized growth (OD600, IQM-normalized) in LPM” near 1, cut for the lowest 2% near 0.014. The sample holds the lowest values, similar compounds and a random draw of the others, so the mix is not that of the screen.
experimental-readout: normalized growth

{"columns": ["molecule", "study-target", "recorded-number"],
 "data": [
  ["C#CC1(O)CC[C@H]2[C@@H]3CCC4=CC(=O)CC[C@@H]4[C@H]3CC[C@@]21CC (some centres undefined)", "Salmonella enterica serovar Typhimurium SL1344", 0.941],
  ["N[C@@H](Cc1ccc(O)cc1)C(=O)O", "Salmonella enterica serovar Typhimurium SL1344", 0.979],
  ["C=CC[C@@H]1/C=C(\\C)C[C@H](C)C[C@H](OC)[C@H]2O[C@@](O)(C(=O)C(=O)N3CCCC[C@H]3C(=O)O[C@H](/C(C)=C/[C@@H]3CC[C@@H](O)[C@H](OC)C3)[C@H](C)[C@@H](O)CC1=O)[C@H](C)C[C@@H]2OC", "Salmonella enterica serovar Typhimurium SL1344", 0.857],
  ["Nc1cc(C(Cl)=C(Cl)Cl)c(S(N)(=O)=O)cc1S(N)(=O)=O", "Salmonella enterica serovar Typhimurium SL1344", 1.01],
  ["O=C(O)P(=O)(O)O", "Salmonella enterica serovar Typhimurium SL1344", 0.953],
  ["N=C(N)c1ccc(N=NNc2ccc(C(=N)N)cc2)cc1", "Salmonella enterica serovar Typhimurium SL1344", 0.766],
  ["Cc1c(Nc2ncccc2C(=O)O)cccc1C(F)(F)F", "Salmonella enterica serovar Typhimurium SL1344", 1.04],
  ["O=C1c2c(O)cccc2C([C@@H]2O[C@H](CO)[C@@H](O)[C@H](O)[C@H]2O)c2cc(CO)cc(O)c21 (some centres undefined)", "Salmonella enterica serovar Typhimurium SL1344", 1],
  ["CCC(=O)OCC(=O)[C@@]1(OC(=O)CC)[C@@H](C)C[C@H]2[C@@H]3CCC4=CC(=O)C=C[C@]4(C)[C@@]3(F)[C@@H](O)C[C@@]21C", "Salmonella enterica serovar Typhimurium SL1344", 1.06]
]}

* * *

Tested on: Salmonella enterica serovar Typhimurium SL1344
assay-details: normalized growth (OD600, IQM-normalized) in LPM (fraction of plate interquartile mean); higher = more bacterial growth (less inhibition)
condition-context: LPM pH 5.8; 10 µM; 16 h
Over roughly 1,600 compounds, “normalized growth (OD600, IQM-normalized) in LPM” has its median near 1; the lowest 2% begin near 0.014. This is one part of a sample in which the lowest values are shown more often than they occur.
Everything with normalized growth lower than 1 is no; everything else, including exactly 1, is yes.

{"columns": ["compound", "label-class"],
 "data": [
  ["CS(=O)(=O)c1ccc([C@@H](O)[C@@H](CO)NC(=O)C(Cl)Cl)cc1", "no"],
  ["COCC1=C(C(=O)OC(C)OC(=O)OC(C)C)N2C(=O)[C@@H](NC(=O)/C(=N\\OC)c3csc(N)n3)[C@H]2SC1 (some centres not stated)", "yes"],
  ["O=C(O)C(=O)O.[NH-][C@@H]1CCCC[C@H]1[NH-].[Pt+2]", "no"],
  ["CC(C)c1nc(N(C)S(C)(=O)=O)nc(-c2ccc(F)cc2)c1/C=C/[C@@H](O)C[C@@H](O)CC(=O)O", "yes"],
  ["O=C(O)CCC(=O)OC[C@@H](NC(=O)C(Cl)Cl)[C@H](O)c1ccc([N+](=O)[O-])cc1", "no"],
  ["CS(=O)(=O)c1ccc([C@@H](O)[C@@H](CF)NC(=O)C(Cl)Cl)cc1", "no"],
  ["C=C1c2cccc(O)c2C(=O)C2=C(O)[C@]3(O)C(=O)C(C(N)=O)=C(O)[C@@H](N(C)C)[C@@H]3[C@@H](O)[C@H]12", "no"],
  ["CCCCCNC(=N)N/N=C/c1c[nH]c2ccc(OC)cc12", "yes"],
  ["CC(C)(S)[C@@H](N)C(=O)O", "yes"],
  ["CN(C)[C@@H]1C(O)=C(C(N)=O)C(=O)[C@@]2(O)C(O)=C3C(=O)c4c(O)cccc4[C@@](C)(O)[C@H]3C[C@@H]12", "no"],
  ["C=CCCCCCCCCC(=O)[O-].C=CCCCCCCCCC(=O)[O-].[Zn+2]", "yes"],
  ["COc1cc([C@@H]2c3cc4c(cc3[C@@H](O[C@@H]3O[C@@H]5CO[C@@H](c6cccs6)O[C@H]5[C@H](O)[C@H]3O)[C@H]3COC(=O)[C@H]23)OCO4)cc(OC)c1O", "no"],
  ["CC(=O)Oc1cccc(C(=O)O)c1OC(C)=O", "no"],
  ["CN(C)[C@@H]1C(O)=C(C(N)=O)C(=O)[C@@]2(O)C(O)=C3C(=O)c4c(O)ccc(Cl)c4[C@@](C)(O)[C@H]3C[C@@H]12", "no"],
  ["OC[C@H]1O[C@H](O[C@H]2[C@H](O)[C@@H](O)C(O)O[C@@H]2CO)[C@H](O)[C@@H](O)[C@@H]1O (some centres not stated)", "yes"],
  ["COC(=O)/C=C/C(=O)OC", "yes"],
  ["O=C(N[C@H](CO)[C@H](O)c1ccc([N+](=O)[O-])cc1)C(Cl)Cl", "no"],
  ["CC(=O)NCCCS(=O)(=O)O", "no"],
  ["COc1ccc(CN(CCN(C)C)c2ncccn2)cc1", "yes"],
  ["CCCCCCCCCCCCCCCC(=O)OC[C@@H](NC(=O)C(Cl)Cl)[C@H](O)c1ccc([N+](=O)[O-])cc1", "yes"],
  ["O=C(O)CN(CCN(CC(=O)O)CC(=O)O)CC(=O)O.[Na+].[Na+].[Na+]", "no"],
  ["CO[C@H]1C[C@@H]2CC[C@@H](C)[C@@](O)(O2)C(=O)C(=O)N2CCCC[C@H]2C(=O)O[C@H]([C@H](C)C[C@@H]2CC[C@@H](O)[C@H](OC)C2)CC(=O)[C@H](C)/C=C(\\C)[C@@H](O)[C@@H](OC)C(=O)[C@H](C)C[C@H](C)/C=C/C=C/C=C/1C", "no"],
  ["CCN(CC)CCOc1ccc(C(=C(Cl)c2ccccc2)c2ccccc2)cc1", "yes"]
]}
